So I've got a bunch of molecules here, and I need their IC50 values.
Assayed system: METTL3/METTL14 (Homo sapiens)
Experiment notes: METTL3-14 standard enzyme assay (3H-SAM flashplate)
Details: Table 3; METTL3 biochemical assay

Reference set (3 entries):
IN: For the molecule shown here, `Cn1ccc(-c2cn([C@@H]3O[C@H](C(=O)NCC4CCNCC4)[C@@H](O)[C@H]3O)c3ncnc(N)c23)n1` , give the reported IC50.
OUT: 100 to 1000 nM

IN: For the molecule shown here, `CN1CCC(NC(=O)[C@H]2O[C@@H](n3cc(-c4ccn(C)n4)c4c(N)ncnc43)[C@H](O)[C@@H]2O)CC1` , give the reported IC50.
OUT: 100 to 1000 nM

IN: For the molecule shown here, `COCCCN(C)C(=O)[C@H]1O[C@@H](n2cc(-c3ccn(C)n3)c3c(N)ncnc32)[C@H](O)[C@@H]1O` , give the reported IC50.
OUT: ≥ 1000 nM

Please go through the list and note IC50 for each molecule.
1. Cn1ccc(-c2cn([C@@H]3O[C@H](C(=O)Nc4ccc5ccc(N6CCC6)nc5c4)[C@@H](O)[C@H]3O)c3ncnc(N)c23)n1
2. CN1CCC(CNC(=O)[C@H]2O[C@@H](n3cc(-c4ccn(C)n4)c4c(N)ncnc43)[C@H](O)[C@@H]2O)CC1
3. COCCNC(=O)[C@H]1O[C@@H](n2cc(-c3ccn(C)n3)c3c(N)ncnc32)[C@H](O)[C@@H]1O
4. Cn1ccc(-c2cn([C@@H]3O[C@H](C(=O)N(CC[C@H](N)C(=O)O)C4CCNCC4)[C@@H](O)[C@H]3O)c3ncnc(N)c23)n1
5. Nc1ncnc2c1c(-n1cccn1)cn2[C@H]1C[C@H](O)[C@@H](C(=O)Nc2ccc3ccc(NC4CCC4)nc3c2)O1
6. Nc1ncnc2c1ccn2[C@@H]1O[C@H](C(=O)NCC2CCN(CC(F)F)CC2)[C@@H](O)[C@H]1O

OUT:
["< 10 nM", "100 to 1000 nM", "≥ 1000 nM", "100 to 1000 nM", "< 10 nM", "≥ 1000 nM"]

Please go through the list and note IC50 for each molecule.
1. Cn1ccc(-c2cn([C@@H]3O[C@H](C(=O)NCC4CCOCC4)[C@@H](O)[C@H]3O)c3ncnc(N)c23)n1
2. Nc1ccnc(NC(=O)[C@H]2O[C@@H](n3cc(-n4cccn4)c4c(N)ncnc43)C[C@@H]2O)c1
3. COCCN(C(=O)[C@H]1O[C@@H](n2ccc3c(N)ncnc32)[C@H](O)[C@@H]1O)c1ccc2ccc(N3CCC3)nc2c1
4. CN1CCC(N(CC[C@H](N)C(=O)O)C(=O)[C@H]2O[C@@H](n3cc(-c4ccn(C)n4)c4c(N)ncnc43)[C@H](O)[C@@H]2O)CC1

OUT:
1: 100 to 1000 nM; 2: 10 to 100 nM; 3: ≥ 1000 nM; 4: < 10 nM

====

Assayed system: METTL3/METTL14 (Homo sapiens, UniProt Q86U44)
Sequence (Q86U44 whole entry, species assumed): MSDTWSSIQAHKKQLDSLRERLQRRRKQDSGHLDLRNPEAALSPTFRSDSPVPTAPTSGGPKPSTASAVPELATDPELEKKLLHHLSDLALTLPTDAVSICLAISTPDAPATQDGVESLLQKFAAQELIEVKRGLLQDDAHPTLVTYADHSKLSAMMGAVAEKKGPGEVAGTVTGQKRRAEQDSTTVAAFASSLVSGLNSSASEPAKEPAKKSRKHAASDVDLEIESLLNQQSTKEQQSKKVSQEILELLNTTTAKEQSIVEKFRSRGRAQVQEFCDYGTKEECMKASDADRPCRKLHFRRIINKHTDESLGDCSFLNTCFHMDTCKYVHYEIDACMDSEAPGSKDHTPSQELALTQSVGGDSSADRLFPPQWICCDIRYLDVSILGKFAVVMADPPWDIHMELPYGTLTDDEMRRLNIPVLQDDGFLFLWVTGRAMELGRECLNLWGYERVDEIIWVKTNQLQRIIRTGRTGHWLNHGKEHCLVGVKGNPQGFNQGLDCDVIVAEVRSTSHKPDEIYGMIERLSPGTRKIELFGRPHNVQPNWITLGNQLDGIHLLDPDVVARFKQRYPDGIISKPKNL
Sequence (Q9HCE5 whole entry partner, species assumed): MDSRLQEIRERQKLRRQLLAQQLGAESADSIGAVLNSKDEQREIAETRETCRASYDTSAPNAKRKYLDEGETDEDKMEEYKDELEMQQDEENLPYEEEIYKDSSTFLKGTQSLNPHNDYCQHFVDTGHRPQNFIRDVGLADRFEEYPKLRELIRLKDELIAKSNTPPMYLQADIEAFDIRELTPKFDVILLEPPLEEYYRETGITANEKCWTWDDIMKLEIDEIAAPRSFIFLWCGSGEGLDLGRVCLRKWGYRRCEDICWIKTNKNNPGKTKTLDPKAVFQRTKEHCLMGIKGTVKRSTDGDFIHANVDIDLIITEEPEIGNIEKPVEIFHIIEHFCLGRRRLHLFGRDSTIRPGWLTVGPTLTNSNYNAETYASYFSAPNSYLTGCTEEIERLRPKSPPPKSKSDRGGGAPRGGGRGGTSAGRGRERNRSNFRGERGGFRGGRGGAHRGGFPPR
Experiment notes: METTL3-14 standard enzyme assay (3H-SAM flashplate)
Details: Table 4; METTL3 biochemical assay
Readout label: IC50

Reference set (2 entries):
IN: For METTL3/METTL14 (Homo sapiens, UniProt Q86U44), provide IC50 of `Cn1ccc(-c2cn([C@@H]3O[C@H](C(=O)Nc4ccon4)[C@@H](O)[C@H]3O)c3ncnc(N)c23)n1` please.
OUT: ≥ 1 µM

IN: For METTL3/METTL14 (Homo sapiens, UniProt Q86U44), provide IC50 of `Cn1ccc(-c2cn([C@@H]3O[C@H](C(=O)NCCc4ccc5ccccc5c4)[C@@H](O)[C@H]3O)c3ncnc(N)c23)n1` please.
OUT: 0.1 to 1 µM

Please go through the list and note IC50 for each compound.
1. Cn1ccc(-c2cn([C@@H]3O[C@H](C(=O)NC4CCN(c5ccccn5)CC4)[C@@H](O)[C@H]3O)c3ncnc(N)c23)n1
2. Cc1ccnc(NC(=O)[C@H]2O[C@@H](n3cc(-c4ccn(C)n4)c4c(N)ncnc43)[C@H](O)[C@@H]2O)c1
3. Cn1ccc(-c2cn([C@@H]3O[C@H](C(=O)Nc4ccc(-n5cnnn5)cc4)[C@@H](O)[C@H]3O)c3ncnc(N)c23)n1

OUT:
1. 0.1 to 1 µM
2. ≥ 1 µM
3. 0.1 to 1 µM

IN: For METTL3/METTL14 (Homo sapiens, UniProt Q86U44), provide IC50 of `Cn1ccc(-c2cn([C@@H]3O[C@H](C(=O)Nc4ccc5c(c4)OCCCO5)[C@@H](O)[C@H]3O)c3ncnc(N)c23)n1` please.
OUT: 0.1 to 1 µM
